Target: Bromodomain-containing protein 3 (Homo sapiens, UniProt Q15059)
Sequence (Q15059 whole entry): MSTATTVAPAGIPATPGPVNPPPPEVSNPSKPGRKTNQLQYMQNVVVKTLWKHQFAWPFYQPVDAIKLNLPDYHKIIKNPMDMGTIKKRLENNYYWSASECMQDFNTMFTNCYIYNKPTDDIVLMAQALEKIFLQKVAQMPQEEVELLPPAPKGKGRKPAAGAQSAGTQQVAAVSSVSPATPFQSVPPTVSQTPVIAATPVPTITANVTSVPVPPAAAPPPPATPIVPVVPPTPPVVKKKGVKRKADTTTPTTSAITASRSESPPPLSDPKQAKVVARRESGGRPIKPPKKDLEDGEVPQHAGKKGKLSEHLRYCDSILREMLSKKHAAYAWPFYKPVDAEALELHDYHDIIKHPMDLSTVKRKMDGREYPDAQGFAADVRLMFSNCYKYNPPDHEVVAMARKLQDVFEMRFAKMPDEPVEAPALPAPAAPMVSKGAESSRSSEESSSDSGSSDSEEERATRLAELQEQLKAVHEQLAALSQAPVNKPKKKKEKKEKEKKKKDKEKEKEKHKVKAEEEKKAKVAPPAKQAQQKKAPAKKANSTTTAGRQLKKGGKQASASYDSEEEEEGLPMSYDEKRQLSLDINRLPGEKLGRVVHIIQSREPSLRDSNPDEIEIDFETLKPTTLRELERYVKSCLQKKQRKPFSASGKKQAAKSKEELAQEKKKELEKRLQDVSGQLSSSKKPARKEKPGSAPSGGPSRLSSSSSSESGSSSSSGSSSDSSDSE
Experiment: Inhibition of C-terminal His6-tagged BRD3 BD2 (unknown origin) using H-YSGRGK(Ac)GGK(Ac)GLGK(Ac)-GGAK(Ac)RHRK-Biotin-OH as substrate incubated for 1 hrs by HTRF assay
measured-property: pIC50
Please treat pIC50 as minus the base-10 logarithm of the molar concentration.

[
  {
    "chem-smiles": "Cc1cc(F)cc(C)c1Oc1ccc(C(C)(C)O)cc1-c1cn(C)c(=O)c2cc(-c3cnc(C4CCCC4)[nH]3)oc12",
    "pIC50": 8.27
  }
]

Let us examine a further case.
If you can, please state the reported pIC50 value of Cc1cc(F)cc(C)c1Oc1ccc(C(C)(C)O)cc1-c1cn(C)c(=O)c2cc(-c3cnc(C4CCCCC4)[nH]3)oc12 .
7.89

----------
Property: ΔTm; scope: individual molecules
Target: Histone acetyltransferase KAT2B (Homo sapiens) (UniProt Q92831)
Sequence (Q92831 whole entry, looked up): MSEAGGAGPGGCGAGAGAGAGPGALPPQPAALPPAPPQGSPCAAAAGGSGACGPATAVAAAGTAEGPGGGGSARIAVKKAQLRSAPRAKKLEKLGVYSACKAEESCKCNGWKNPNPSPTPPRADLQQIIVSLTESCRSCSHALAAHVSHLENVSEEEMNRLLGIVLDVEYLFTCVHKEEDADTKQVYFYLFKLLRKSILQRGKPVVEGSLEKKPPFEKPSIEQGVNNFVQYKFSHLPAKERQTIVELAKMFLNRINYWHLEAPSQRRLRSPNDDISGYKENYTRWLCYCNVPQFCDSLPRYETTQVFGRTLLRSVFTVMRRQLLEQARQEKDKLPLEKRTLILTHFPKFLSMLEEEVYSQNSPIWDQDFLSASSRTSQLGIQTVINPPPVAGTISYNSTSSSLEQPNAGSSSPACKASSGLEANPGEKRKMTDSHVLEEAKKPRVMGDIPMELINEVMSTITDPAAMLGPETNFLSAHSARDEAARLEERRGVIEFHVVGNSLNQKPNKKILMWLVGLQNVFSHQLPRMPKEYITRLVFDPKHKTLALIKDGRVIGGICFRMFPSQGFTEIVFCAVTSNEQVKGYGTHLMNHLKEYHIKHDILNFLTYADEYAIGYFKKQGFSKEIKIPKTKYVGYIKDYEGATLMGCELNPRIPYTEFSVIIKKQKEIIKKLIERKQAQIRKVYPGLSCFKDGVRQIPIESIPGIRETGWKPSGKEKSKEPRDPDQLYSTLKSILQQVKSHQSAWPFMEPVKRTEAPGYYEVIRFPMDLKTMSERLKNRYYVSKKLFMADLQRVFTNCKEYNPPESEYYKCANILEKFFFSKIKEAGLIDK
Assay: Binding affinity to PCAF (unknown origin) assessed as change in melting temperature at 100 uM incubated for 30 mins by thermal shift assay
Write it as a number; the unit °C goes unstated.

Example results:
[
  {
    "chem-smiles": "Cc1cc(F)cc(C)c1Oc1ccc(C(C)(C)O)cc1-c1cn(C)c(=O)c2cc(-c3cnc(C4CCCCC4)[nH]3)oc12",
    "ΔTm [°C]": 0.25
  },
  {
    "chem-smiles": "Cc1cc(F)cc(C)c1Oc1ccc(C(C)(C)O)cc1-c1cn(C)c(=O)c2cc(-c3cnc(C4CCCC4)[nH]3)oc12",
    "ΔTm [°C]": 0
  },
  {
    "chem-smiles": "Cc1cc(F)cc(C)c1Oc1ccc(C(C)(C)O)cc1-c1cn(C)c(=O)c2cc(-c3cnc(C4CCC4)[nH]3)oc12",
    "ΔTm [°C]": -1
  }
]

Let us examine a further case.
If you can, please state the reported ΔTm value of Cc1cc(F)cc(C)c1Oc1ccc(C(C)(C)O)cc1-c1cn(C)c(=O)c2cc(-c3cnc(C4CC4)[nH]3)oc12 .
-0.5

----------
Biological target: Bromodomain-containing protein 4 (Homo sapiens, UniProt O60885)
Assay: Inhibition of C-terminal His6-tagged BRD4 BD2 (unknown origin) using H-YSGRGK(Ac)GGK(Ac)GLGK(Ac)-GGAK(Ac)RHRK-Biotin-OH as substrate incubated for 1 hrs by HTRF assay
pIC50: −log10 of the molar value.
Rule: met for pIC50 not less than 9, not met for anything less.

[
  {
    "chem-smiles": "CCS(=O)(=O)Nc1ccc(Oc2c(OC)cccc2OC)c(-c2cn(C)c(=O)c3cc(-c4cc(C)c(OCCO)c(C)c4)oc23)c1",
    "category-label": "not met"
  }
]

Threshold query (pIC50 >= 9) on Cc1cc(-c2cc3c(=O)n(C)cc(-c4cc(C(C)(C)O)ccc4Oc4ccc(F)cc4F)c3o2)cc(C)c1OCCO
met

----------
Biological target: Transcription intermediary factor 1-alpha (Homo sapiens) (UniProt O15164)
Sequence (O15164 whole entry): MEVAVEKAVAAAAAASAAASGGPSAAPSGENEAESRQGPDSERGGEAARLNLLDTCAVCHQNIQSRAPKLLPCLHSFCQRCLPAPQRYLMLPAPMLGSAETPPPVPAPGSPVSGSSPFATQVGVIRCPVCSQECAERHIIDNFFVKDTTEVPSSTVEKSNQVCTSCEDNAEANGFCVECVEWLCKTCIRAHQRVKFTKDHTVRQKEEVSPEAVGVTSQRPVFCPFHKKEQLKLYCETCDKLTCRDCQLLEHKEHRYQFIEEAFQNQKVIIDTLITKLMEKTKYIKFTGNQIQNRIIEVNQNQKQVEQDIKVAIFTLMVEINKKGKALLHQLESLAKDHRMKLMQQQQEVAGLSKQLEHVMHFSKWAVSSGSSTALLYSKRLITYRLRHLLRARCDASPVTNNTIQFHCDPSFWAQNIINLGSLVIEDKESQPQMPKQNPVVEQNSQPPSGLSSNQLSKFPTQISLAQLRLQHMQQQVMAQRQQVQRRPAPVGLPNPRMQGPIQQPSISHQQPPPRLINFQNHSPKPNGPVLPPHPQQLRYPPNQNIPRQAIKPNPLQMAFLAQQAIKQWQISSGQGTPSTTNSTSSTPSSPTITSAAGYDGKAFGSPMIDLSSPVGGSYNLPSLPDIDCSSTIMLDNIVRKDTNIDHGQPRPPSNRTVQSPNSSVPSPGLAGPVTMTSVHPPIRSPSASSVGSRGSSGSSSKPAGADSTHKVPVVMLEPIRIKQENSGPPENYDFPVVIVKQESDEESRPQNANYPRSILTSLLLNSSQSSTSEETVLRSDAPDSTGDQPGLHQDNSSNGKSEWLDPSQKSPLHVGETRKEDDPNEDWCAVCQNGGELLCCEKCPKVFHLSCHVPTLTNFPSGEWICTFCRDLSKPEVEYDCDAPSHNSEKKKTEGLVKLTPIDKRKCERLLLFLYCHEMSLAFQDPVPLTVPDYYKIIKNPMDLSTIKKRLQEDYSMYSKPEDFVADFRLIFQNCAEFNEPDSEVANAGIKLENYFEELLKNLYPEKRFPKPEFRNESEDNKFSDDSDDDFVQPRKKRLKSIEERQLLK
Assay: Binding affinity to TRIM24 (unknown origin) assessed as change in melting temperature at 100 uM incubated for 30 mins by thermal shift assay
measured-property: ΔTm
Respond with the figure and its unit, in that order.

[
  {
    "chem-smiles": "Cc1cc(F)cc(C)c1Oc1ccc(C(C)(C)O)cc1-c1cn(C)c(=O)c2cc(-c3cnc(C4CCCCC4)[nH]3)oc12",
    "study-system": "Transcription intermediary factor 1-alpha (Homo sapiens) (UniProt O15164)",
    "measured-property": "ΔTm",
    "result-value": "-1 °C"
  }
]

If you can, please state the reported ΔTm value of Cc1cc(F)cc(C)c1Oc1ccc(C(C)(C)O)cc1-c1cn(C)c(=O)c2cc(-c3cnc(C4CC4)[nH]3)oc12 .
-1.5 °C

If you can, please state the reported ΔTm value of Cc1cc(F)cc(C)c1Oc1ccc(C(C)(C)O)cc1-c1cn(C)c(=O)c2cc(-c3cnc(C4CCCC4)[nH]3)oc12 .
-1 °C

If you can, please state the reported ΔTm value of Cc1cc(F)cc(C)c1Oc1ccc(C(C)(C)O)cc1-c1cn(C)c(=O)c2cc(-c3cnc(C4CCC4)[nH]3)oc12 .
-1.25 °C

The origin of these recorded values is ChEMBL document CHEMBL5154816.
